System: Mus musculus
method.description: Antiinflammatory activity against carrageenan-induced paw edema in ICR mouse at 50 mg/kg, ip administered 30 mins before carrageenan challenge assessed after 2 hrs
Format: functional
run.parameters: route intraperitoneal
Property: Activity; scope: individual compounds
Provide the reading as a plain figure in %.

Some entries whose results are on file:
compound	measurement.label	reported
C[C@@]12C[C@H](c3ccoc3)OC(=O)C1=CC[C@]1(C)[C@H]2[C@H]2C=C[C@]1(O)C(=O)O2	Activity	17.97
C[C@@]12C[C@H](c3ccoc3)OC(=O)C1=CC[C@]1(C)[C@H]2[C@@H]2OC(=O)[C@@]1(O[C@@H]1O[C@H](CO)[C@@H](O)[C@H](O)[C@H]1O)[C@H]1O[C@@H]21 [FIBRAURINOSIDE]	Activity	18.99

# input for lookup
Input C[C@@]12C[C@H](c3ccoc3)OC(=O)C1=CC[C@]1(C)[C@H]2[C@@H]2OC(=O)[C@@]1(O)[C@H]1O[C@@H]21 , output reported Activity.
28.66

---

Test system: Mus musculus
method.description: Antiinflammatory activity against carrageenan-induced paw edema in ICR mouse at 50 mg/kg, ip administered 30 mins before carrageenan challenge assessed after 1 hr
Type: functional
run.parameters: route intraperitoneal
measurement.label: Activity (%)
Provide the reading as a plain figure in %.

compound	Activity (%)
C[C@@]12C[C@H](c3ccoc3)OC(=O)C1=CC[C@]1(C)[C@H]2[C@@H]2OC(=O)[C@@]1(O[C@@H]1O[C@H](CO)[C@@H](O)[C@H](O)[C@H]1O)[C@H]1O[C@@H]21 [FIBRAURINOSIDE]	18.18
COC(=O)C1=CCC[C@H]2[C@]3(C)C[C@@H](c4ccoc4)OC(=O)[C@H]3CC[C@@]12C	20.95

Input C[C@@]12C[C@H](c3ccoc3)OC(=O)[C@@H]1CC[C@]1(C)[C@H]2[C@@H]2OC(=O)[C@@]1(O)[C@H]1O[C@@H]21 , output reported Activity.
18.46

Input C[C@@]12C[C@H](c3ccoc3)OC(=O)C1=CC[C@]1(C)[C@H]2[C@H]2C=C[C@]1(O)C(=O)O2 , output reported Activity.
13.12

Input C[C@@]12C[C@H](c3ccoc3)OC(=O)C1=CC[C@]1(C)[C@H]2[C@@H]2OC(=O)[C@@]1(O)[C@H]1O[C@@H]21 , output reported Activity.
27.17

Input C[C@@]12CC=C3C(=O)O[C@@H](c4ccoc4)C[C@@]3(C)[C@@H]1CC=CC2=O , output reported Activity.
24.17

Input C[C@@]12C[C@H](c3ccoc3)OC(=O)C1=CC[C@]1(C)[C@H]2[C@H]2C=C[C@]1(O[C@@H]1O[C@H](CO)[C@@H](O)[C@H](O)[C@H]1O)C(=O)O2 [FIBLEUCINOSIDE] , output reported Activity.
18.8

Input C[C@@]12C[C@@H](c3ccoc3)OC(=O)[C@H]1CC[C@@H]1[C@H]2C[C@@H]2OC(=O)[C@@]1(O)[C@@H]2O , output reported Activity.
20.1

---

System: Mus musculus
method.description: Antiinflammatory activity against carrageenan-induced paw edema in ICR mouse at 50 mg/kg, ip administered 30 mins before carrageenan challenge assessed after 2 hrs
Format: functional
run.parameters: route intraperitoneal
measurement.label: Activity

molecule	target.of.assay	Activity
C[C@@]12C[C@H](c3ccoc3)OC(=O)C1=CC[C@]1(C)[C@H]2[C@H]2C=C[C@]1(O[C@@H]1O[C@H](CO)[C@@H](O)[C@H](O)[C@H]1O)C(=O)O2 [FIBLEUCINOSIDE]	Mus musculus	24.26%
C[C@@]12CC=C3C(=O)O[C@@H](c4ccoc4)C[C@@]3(C)[C@@H]1CC=CC2=O	Mus musculus	25.18%
C[C@@]12C[C@H](c3ccoc3)OC(=O)[C@@H]1CC[C@]1(C)[C@H]2[C@@H]2OC(=O)[C@@]1(O)[C@H]1O[C@@H]21	Mus musculus	22.41%

Input C[C@@]12C[C@@H](c3ccoc3)OC(=O)[C@H]1CC[C@@H]1[C@H]2C[C@@H]2OC(=O)[C@@]1(O)[C@@H]2O , output reported Activity.
24.03%

Input COC(=O)C1=CCC[C@H]2[C@]3(C)C[C@@H](c4ccoc4)OC(=O)[C@H]3CC[C@@]12C , output reported Activity.
21.51%
